ASSAYED_TARGET: PYCR1 full length recombinant enzyme (aa 1-319) (Homo sapiens, UniProt P32322)
Construct: PYCR1 full length recombinant enzyme (aa 1-319) with a 6His-tag at the N-terminus; 6His (N)
Sequence (P32322 whole entry, the tested form may be a part): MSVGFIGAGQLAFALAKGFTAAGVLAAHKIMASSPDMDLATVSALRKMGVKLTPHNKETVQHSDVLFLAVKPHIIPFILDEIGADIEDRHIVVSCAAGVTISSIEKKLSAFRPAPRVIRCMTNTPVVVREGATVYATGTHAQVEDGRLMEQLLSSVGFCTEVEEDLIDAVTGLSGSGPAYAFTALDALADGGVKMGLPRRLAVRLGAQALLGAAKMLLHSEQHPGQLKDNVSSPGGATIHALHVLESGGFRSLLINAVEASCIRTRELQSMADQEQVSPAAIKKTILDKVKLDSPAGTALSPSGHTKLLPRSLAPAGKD
MEASUREMENT_NOTES: PYCR1 Inhibition Assay (NAD(P)H-Glo luminescence)
CONDITION_INFO: 5 mM L-proline + 0.5 mM NAD+, 4.2 nM enzyme, 45 min at room temperature
pIC50: −log10 of the molar value.
RESULT_TYPE: pIC50

>  <COMPOUND>
O=C(CCCc1nc(-c2ccc(Cl)cc2)no1)Nc1ccccc1C(=O)O

>  <OBSERVED_VALUE>
5.10

$$$$
>  <COMPOUND>
O=C(Cc1ccc(C(=O)O)cc1)NC(c1ccccc1)c1ccccc1N1CCCCC1 (stereo not drawn)

>  <OBSERVED_VALUE>
5.14

$$$$
>  <COMPOUND>
COc1ccc(C(=O)c2oc3ccccc3c2CSCCC(=O)OC(C)(C)C)cc1C(=O)O

>  <OBSERVED_VALUE>
5.07

$$$$
